Exercise: for every item that follows, state its recorded IC50 at 72 h.
assay: DNDI: Cytotoxicity against L929 mouse fibroblasts, 72 hour.; type: toxicity, cell-based; conditions: mouse, L929 mouse fibroblasts

// lookup IC50 at 72 h for Cc1ccc(CNC(CC(C)C)c2nc(-c3ccccc3)c(N3CCOCC3)o2)cc1 (centres undefined) > 10 µg/mL

I would be grateful if you could share the reported IC50 at 72 h for Cc1ccc(CNC(c2nc(Cc3ccccc3)c(N3CCOCC3)o2)C2CCCCC2)cc1 (centres undefined) . > 10 µg/mL

For the compound "C[C@H](NCc1coc(-c2ccc(Cl)cc2)n1)C1CCCCC1" , what IC50 at 72 h is on record? < 3.13 µg/mL

Reported IC50 at 72 h for "O/N=C(\NCC1CC1)c1ccccc1-c1ccccc1" : what is it? > 10 µg/mL

Using the record for "C[C@@H]1[C@H]2C[C@@H](C[C@H]1NCc1coc(-c3ccc(-c4ccccc4)cc3)n1)C2(C)C" , report its IC50 at 72 h. < 3.13 µg/mL

What measured IC50 at 72 h goes with CCC(C)C(NCC(C)C)c1nc(Cc2ccccc2)c(N2CCCCC2)o1 (centres undefined) ? > 10 µg/mL

Give the measured IC50 at 72 h of COc1cccc(-c2nc(CNCCC3CCCN3C)c(C)o2)c1 (centres undefined) . > 10 µg/mL

Recorded IC50 at 72 h for "CCCOc1ccc(-c2nc(CNC[C@@H]3CC[C@H]4C[C@@H]3C4(C)C)co2)cc1" , please? < 3.13 µg/mL

Look up IC50 at 72 h: "CCCCCCCCOC(=O)Cc1coc(-c2ccc(CCCC)cc2)n1" > 10 µg/mL

----------
assay: DNDI: Cytotoxicity against L929 mouse fibroblasts, 72 hour.; format: toxicity, cell-based; settings: mouse, L929 mouse fibroblasts
Endpoint Label: IC50 at 72 h

IC50 at 72 h for "C[N+]1(C)CCN(c2cc(-c3ccccc3)nc3cc(-c4ccc(F)cc4)nn23)CC1" ? > 10 µg/mL

Record request: IC50 at 72 h value, item CCCCCC(C)NCc1nc(-c2ccc(OC)cc2)oc1C (stereo unspecified) > 10 µg/mL

Consider the compound "CCCCc1ccc(-c2nc(C)c(C(C)=O)o2)cc1" and give its measured IC50 at 72 h. > 10 µg/mL

GET /values?readout=IC50 at 72 h&item= "Cc1cc2[nH]c(-c3ccccc3)cc(=O)n2n1" > 10 µg/mL

So what's the measured IC50 at 72 h for this one? CCC(C)C(NCc1ccco1)c1nc(-c2ccccc2)c(N2CCCCC2)o1 (stereo unspecified) > 10 µg/mL

For the compound "CCCCCNCc1coc(-c2ccc(CCCC)cc2)n1" , what IC50 at 72 h is on record? 1.64 µg/mL

IC50 at 72 h lookup needed for "c1cc(-c2nc(CNC3CCCCCC3)co2)ccc1OC1CCCCC1" , thanks. 1.29 µg/mL

Query: IC50 at 72 h; subject: "COc1ccc(/C(=N/O)Nc2cccc(F)c2)cc1" > 10 µg/mL

Which value of IC50 at 72 h has been reported for CCCCCC(C)NCc1coc(-c2cccc(F)c2F)n1 (stereo unspecified) in the records? 10.7 µg/mL

Form field: reported IC50 at 72 h of "CCCCc1ccc(-c2nc(CNCc3ccc(OC)cc3)co2)cc1" 3.13 µg/mL

Return reported IC50 at 72 h; argument: "COc1ccccc1Oc1ncccc1/C(N)=N\O" > 10 µg/mL

// returns reported IC50 at 72 h for input C/C(O)=C1\C(=O)NC(COCc2ccccc2)C1=O (stereo unspecified) > 10 µg/mL

Entry "CCCCc1ccc(-c2nc(COCC)co2)cc1" : reported IC50 at 72 h = ? > 10 µg/mL

Can you look up the measured IC50 at 72 h of "Fc1cccc(-c2cc3nc(-c4ccccc4)cc(NCCCN4CCCC4)n3n2)c1" for me? 2.49 µg/mL

Which IC50 at 72 h is listed for CC(C)CC(NCCc1ccc(S(N)(=O)=O)cc1)c1nc(C(C)C)c(N2CCOCC2)o1 (stereo unspecified) ? > 10 µg/mL

Data request, read-out IC50 at 72 h, for CCCCCC(C)NCc1coc(-c2ccc(OC3CCCCC3)cc2)n1 (stereo unspecified) 1.48 µg/mL

----------
Hi there, I'd appreciate the recorded IC50 for every entry that follows.
test: DNDI: Cytotoxicity against L-6 rat myoblasts from skeletal muscle cells; type: toxicity, cell-based, L6; conditions: L-6 rat skeletal muscle myoblasts

Any idea what its IC50 is? The compound is "O/N=C(\NC1CCCCC1)c1ccsc1" > 83.5 µg/mL

I would be grateful if you could share the reported IC50 for "O/N=C(\NC1CCCCC1)c1ccccc1Oc1ccccc1" . > 90 µg/mL

Need IC50, item "O/N=C1/CCCCCN1" > 90 µg/mL

----------
assay: DNDI: Lipophilicity measured in Chromatographic hydrophobicity index (CHI) assay, pH 7.4; assay type: physicochemical; conditions: buffer
What chromatographic logD was measured for each of the following?
Output spec: single numeric token, no unit.

Fill blank: measured chromatographic logD of the compound "CCCCc1ccc(-c2nc(CN[C@@H]3C[C@@H]4C[C@H]([C@H]3C)C4(C)C)co2)cc1" is ____. 6.6

Bench note: what chromatographic logD did "CCCCCOc1ccc(-c2nc(CN[C@@H]3C[C@@H]4C[C@H]([C@H]3C)C4(C)C)co2)cc1" show? 6.5

So what does the record say about chromatographic logD for CCCCCC(C)NCc1coc(-c2ccc(OCC)cc2)n1 (stereo not drawn) ? 4.95

----------
assay: DNDI: Cytotoxicity against L929 mouse fibroblasts, 72 hour.; assay type: toxicity, cell-based; conditions: mouse, L929 mouse fibroblasts
Exercise: state measured IC50 at 72 h for each of the compounds provided.
Write down the numeric answer in µg/mL and omit the unit.

Any idea what IC50 at 72 h was measured for CCCCCC(C)NCc1ccc(-c2ccccc2)o1 (stereo not drawn) ? 7.14

I am curious: what IC50 at 72 h value has been reported for "Fc1cccc(-c2cc3nc(-c4ccccc4)cc(NCCN4CCCC4)n3n2)c1" ? 1.54

Look up IC50 at 72 h: "CCc1cccc(NS(=O)(=O)c2ccc(OC)cc2)c1" 1.88

# input compound: CCCCCC(C)NCc1coc(-c2ccc(OCc3ccc(C)cc3)cc2)n1 (stereo not drawn) ; wanted: its IC50 at 72 h 1.27

----------
experiment: DNDI: Cytotoxicity against L929 mouse fibroblasts, 72 hour.; assay type: toxicity, cell-based; details: mouse, L929 mouse fibroblasts
Endpoint Label: IC50 at 72 h

Query: IC50 at 72 h; subject: "COc1ccc(S(=O)(=O)NC2CCCCC2)cc1OC" > 10 µg/mL

Would you mind telling me what IC50 at 72 h value was observed for "CCCCc1ccc(-c2nc(-c3ccccc3)co2)cc1" ? 26.6 µg/mL

I am curious: what IC50 at 72 h value has been reported for CCCCCC(C)NCc1coc(-c2ccc(OCCCC)c(F)c2)n1 (stereo not given) ? 0.73 µg/mL

Recorded IC50 at 72 h of "COc1ccc(S(=O)(=O)Nc2ccccn2)cc1" , please. > 10 µg/mL

Data request, read-out IC50 at 72 h, for "CCCCc1ccc(-c2nc(-c3ccc(OC)cc3)co2)cc1" > 10 µg/mL

Which IC50 at 72 h is reported for this compound? CCCCCC(C)OCc1coc(-c2ccccc2)n1 (stereo not given) 27.7 µg/mL

Would you mind telling me what IC50 at 72 h value was observed for "Cc1cc(NCCN2CCCCC2)n2nc(-c3cccc(F)c3)cc2n1" ? > 10 µg/mL

Looking for the measured IC50 at 72 h of "CC(C)(C)c1cc(=O)n2nc(-c3ccc(F)cc3)cc2[nH]1" , can you help? > 10 µg/mL

Which IC50 at 72 h is listed for "C/C(O)=C1/C(=O)CN(C)C1=O" ? > 10 µg/mL

Entry under review: CCCCCC(C)NCc1ccc(-c2ccccc2)cc1 (stereo not given) . Reported IC50 at 72 h? < 3.13 µg/mL

----------
test: DNDI: Cytotoxicity against L929 mouse fibroblasts, 72 hour.; format: toxicity, cell-based; details: mouse, L929 mouse fibroblasts
Just so you know, the groups by IC50 at 72 h go like this: low interval (below 3 µg/mL), middle interval (3 µg/mL to below 6 µg/mL), high interval (6 µg/mL or more)

Dear colleague, I would appreciate it if you could identify the bin for "O/N=C(/NC1CCCCC1)c1cccnc1Oc1ccc(Cl)cc1" and reply at your convenience. high interval

Input "CCCCc1ccc(-c2nc(CN3CCOCC3)co2)cc1" ; output its category high interval

The entry to classify is "CCc1ccc(/C(=N/O)NC2CCCCC2)cc1" ; which class holds it? high interval

Which band does CCCCCC(C)NCc1coc(-c2ccc(CCCC)cc2)n1 (stereo not drawn) fall in? low interval

Input CCCCCC(C)NCc1coc(-c2ccc(Oc3ccc(F)cc3)cc2)n1 (stereo not drawn) ; output its category low interval

Class label required: Cc1ccc(-c2nc(CNCCC3CCCN3C)c(C)o2)cc1 (stereo not drawn) high interval

Which of the defined bands does the recorded IC50 at 72 h of CCc1ccc(Oc2ncccc2/C(=N\O)NC2CCCC[C@@H]2N)cc1 (stereo partly drawn) sit within? high interval

Determine which band this compound sits in: "CCCCc1ccc(-c2nc3ncccc3o2)cc1" high interval

Looking at "CCCCNCc1coc(-c2ccc(CCCC)cc2)n1" , which class would you pick? low interval

Lab log: CCCCCC(C)NCc1coc(-c2ccccc2OC(F)(F)F)n1 (stereo not drawn) — assign IC50 at 72 h category middle interval

Hi there! Could you help me figure out the category for CCCCCC(C)NCc1coc(-c2cccc(C)c2)n1 (stereo not drawn) please? high interval

Which category does the recorded IC50 at 72 h put CCCCCC(C)NCc1nc(-c2cccc(C)c2)oc1C (stereo not drawn) in? high interval

Note: place this compound into its band. Item: "CN(C)CCNc1nc(Oc2cccc3ccccc23)c2sccc2n1" middle interval

For "CCCCc1ccc(-c2nc(CNCc3ccccc3)co2)cc1" , which IC50 at 72 h bin applies? middle interval

Dear colleague, I would appreciate it if you could identify the bin for "Cc1cc(NCCCN2CCCC2=O)n2nc(-c3cccc(F)c3)cc2n1" and reply at your convenience. high interval

Band of CCC(C)C(NCc1ccc(OC)c(OC)c1)c1nc(Cc2ccccc2)c(N2CCCCC2)o1 (stereo not drawn) ? high interval

Place this compound in its band: "O/N=C1/CCCCCN1" high interval

# bin lookup: classify C#[N+]C(C(=O)N1CCOCC1)c1ccccc1 (stereo not drawn) by its IC50 at 72 h high interval

Which bin, given its IC50 at 72 h, does CCCCCC(C)NCc1coc(-c2cccc(OC)c2)n1 (stereo not drawn) occupy? high interval

Please let me know in which category the item "CC(C)(C)c1cc(N2CCNCC2)n2nc(-c3ccc(F)cc3)cc2n1" belongs. low interval

In plain terms, what class is COc1ccc(CNC(CC(C)C)c2nc(C(C)C)c(N3CCOCC3)o2)cc1 (stereo not drawn) ? high interval

Please classify: "CCCC(CCC)NCc1coc(-c2ccc(Cl)cc2)n1" middle interval

Into which bin does this compound go? "CCCCc1ccc(-c2nc(CNC3CCC3)co2)cc1" middle interval

Lab note: sort CCC(C)C(NCc1ccccc1OC)c1nc(-c2ccccc2)c(N2CCCCC2)o1 (stereo not drawn) into the matching IC50 at 72 h band. high interval

Band of CC(C)CC(NCc1ccc(C(F)(F)F)cc1)c1nc(-c2ccccc2)c(N2CCOCC2)o1 (stereo not drawn) ? high interval

Class for "Cc1ccc(Oc2ccccc2/C(=N/O)NC2CCCCC2)cc1" ? middle interval

Which band does CCCCCC(C)NCc1ccccc1-c1ccccc1 (stereo not drawn) fall in? middle interval

Categorize the following entry: "CCCCc1ccc(-c2nc(CNCc3c(OC)cccc3OC)co2)cc1" low interval

Class for "CCCCc1ccc(-c2nc(CNCCCN3CCCCC3)co2)cc1" ? high interval

Entry CCCCc1ccc(-c2nc(CNCCC3CCCN3C)co2)cc1 (stereo not drawn) belongs to which category? middle interval

Could you tell me which band CCCCCC(C)NCc1nc(-c2ccccc2)no1 (stereo not drawn) belongs to? high interval

Entry CCCCCC(C)NCc1coc(-c2ccc(Br)cc2)n1 (stereo not drawn) belongs to which category? middle interval

Looking at CCCCCC(C)NCc1coc(-c2cc(C(C)=O)ccc2O)n1 (stereo not drawn) , which class would you pick? middle interval

Kindly identify the class of CN1CCCC1CCNCc1coc(-c2ccc(OC3CCCC3)cc2)n1 (stereo not drawn) . low interval

Classify this compound: "CCCCc1ccc(-c2nc(C)co2)cc1" high interval

Which IC50 at 72 h category applies to "CCCCc1ccc(-c2nc(Nc3ccccn3)co2)cc1" here? high interval

Entry CCCCCC(C)NCc1coc(-c2ccccc2O)n1 (stereo not drawn) belongs to which category? high interval

For the record c1ccc(-c2nc(C(NCCCn3ccnc3)C3CC3)oc2N2CCOCC2)cc1 (stereo not drawn) , report the class its IC50 at 72 h corresponds to. high interval

Given CCCCCC(C)NCc1coc(-c2ccc(OCCCC)c(C)c2)n1 (stereo not drawn) , name the class its IC50 at 72 h places it in. low interval
